# SYSTEM: recombinant EGFR 790M/L858R kinase (Homo sapiens, UniProt P00533, L858R/T790M)
# Construct: Constructs spanning residues 696-1022 of the human EGFR; GST (cleaved yes)
# Sequence (P00533 696-1022 T790M/L858R): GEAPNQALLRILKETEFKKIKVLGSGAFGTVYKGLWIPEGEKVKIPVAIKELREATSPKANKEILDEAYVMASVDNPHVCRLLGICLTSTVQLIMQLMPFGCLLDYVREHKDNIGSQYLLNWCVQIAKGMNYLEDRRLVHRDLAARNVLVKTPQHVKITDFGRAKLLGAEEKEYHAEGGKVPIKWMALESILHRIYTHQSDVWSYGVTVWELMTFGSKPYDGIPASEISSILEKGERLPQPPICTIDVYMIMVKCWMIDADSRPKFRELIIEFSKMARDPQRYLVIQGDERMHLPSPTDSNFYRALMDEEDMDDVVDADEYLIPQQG
# PROTOCOL_TEXT: HTRF-based EGFR biochemical assay
Reported IC50 by item:

{"columns": ["COMPOUND", "VALUE_TYPE", "REPORTED_MEASUREMENT"],
 "data": [
  ["CN1CCN(c2ccnc(C(=O)N[C@H]3CNc4ccc(F)cc4N(Cc4ccccc4)C3=O)c2)CC1 [Compound I-6]", "IC50", "> 750 nM"]
]}

Next:
Find the recorded IC50 belonging to CN1CCN(c2ccc(-c3ccc4c(c3)CN([C@H]3CNc5ccc(F)cc5N(Cc5ccccc5)C3=O)C4=O)cc2)CC1 [Compound I-14] and report it.
< 250 nM
